kinact/KI: recorded values
test: The rate of inactivation expressed as second-order rate constant is independent of concentration.; conditions: read-out: k2
Where a SMILES comes first, the peptide text is derived from it.
Kindly provide the numeric value in M⁻¹ s⁻¹ only, without the unit symbol.

* C[C@H](NC(=O)[C@H](Cc1ccc(O)cc1)NC(=O)OCc1ccccc1)C(=O)CF | 7.4e+06

# next compound below
// query kinact/KI value for entry CC(C)C[C@H](NC(=O)OCc1ccccc1)C(=O)N[C@@H](Cc1ccc(O)cc1)C(=O)CF (HELM PEPTIDE1{[O=C(OCc1ccccc1)[*:2]].L.Y.[FC[*:1]]}$$$$V2.0) 17000
